Values compiled from ChEMBL document CHEMBL3507680.

experiment: Human HepG2 cell viability assay in 384 well format; format: toxicity, cell-based; parameters: dose 125 nL, time 70.5 hour; concentration not given beside the values; settings: HepG2 cells, read-out: Inhibition
Kindly supply the reported cytotoxicity at 70.5 h values for the records listed here.

Suppose we examine the molecule "O=C(O)c1cc(NS(=O)(=O)c2ccccc2F)ccc1N1CCSCC1" ; what cytotoxicity at 70.5 h value has been reported? -8.7%

And what about the molecule O=C(NCc1cnn2cccnc12)C1CC2(CCNCC2)CN1 (stereo unspecified) ? -4.05%

And what about the molecule "CC(C)N(CC(N)=O)Cc1cccc(C(F)(F)F)c1" ? -1.84%

And what about the molecule "N#Cc1cc(C(F)(F)F)ccc1NCC1CCS(=O)(=O)CC1" ? 16.6%

And what about the molecule CCc1ccc(C(C)NC(=O)N2CCC(n3cncn3)CC2)cc1 (stereo unspecified) ? -8.05%

And what about the molecule Cc1nc2n(n1)CC(NCC(=O)NCC1(c3ccccc3)CC1)CC2 (stereo unspecified) ? -3.45%

And what about the molecule "CN(C)CCCN(C)C1CCN(c2cccc(-c3cscn3)c2)CC1" ? -2.04%

And what about the molecule "Cc1noc([C@H]2COC[C@H]3CN(C(=O)Cc4ccc(F)cc4)C[C@H]32)n1" ? -2.96%

And what about the molecule Cc1ncsc1CCN1CCC(N(C)Cc2noc(C(C)C)n2)C1 (stereo unspecified) ? 6.17%

And what about the molecule "CCOCc1nc2c(c(N(C)Cc3snnc3C)n1)CCNCC2" ? -9.47%

And what about the molecule "COCCCC(=O)N(CCC(=O)O)Cc1ccc(F)c(F)c1" ? -12.3%

* * *

assay: Human HepG2 cell viability assay in 384 well format; type: toxicity, cell-based; parameters: dose 125 nL, time 70.5 hour; concentration not given beside the values; conditions: HepG2 cells, read-out: Inhibition
Kindly supply the reported cytotoxicity at 70.5 h values for the records listed here.
State the answer as a number, implicitly in %.

Suppose we examine the compound "COc1ccsc1C(=O)NCCNc1ccccc1" ; what cytotoxicity at 70.5 h value has been reported? -2.66

And what about the compound "O=c1ccc(-n2cccn2)nn1CCNS(=O)(=O)c1ccc(F)c(Cl)c1" ? 2.64

And what about the compound "O=S(=O)(c1ccccc1)N1CCCN(CCCn2ccnc2)CC1" ? -10.3

And what about the compound "Cc1ccc(NCc2ccccc2C#N)cc1-n1cnnn1" ? 0.552

And what about the compound "Cc1nn(C)c(C)c1CC(=O)NCc1ccnc(N2CCOCC2)c1" ? -6.63

And what about the compound "NC(=O)Nc1cccc(C(=O)N(Cc2ccncc2)C2CC2)c1" ? -10.2

And what about the compound CC1(C(=O)N2CCOCC2)CN(Cc2ccccn2)CCO1 (centres undefined) ? 26.2

And what about the compound CCc1noc(C2CCCCN2C(=O)c2nnc3ccccc3n2)n1 (centres undefined) ? 17.3

And what about the compound "c1cncc(CO[C@H]2CC[C@H]3[C@@H]2OCCN3C2CCOCC2)c1" ? -2.22

And what about the compound Cc1cc(C(=O)N2CCCC(C)C2)ccc1NCc1nc(C2CC2)no1 (centres undefined) ? -13.1

And what about the compound Cc1cc(C(=O)N2CCCC(c3nncn3C)C2)no1 (centres undefined) ? -5.95

And what about the compound O=C1CCC(C(=O)N2CCOC(Cc3cccc4ccccc34)C2)=NN1 (centres undefined) ? 18.7

And what about the compound CCCN1CCC2(C1)c1ccccc1S(=O)(=O)N2C (centres undefined) ? -0.72

And what about the compound "CC(=O)NCC1CCN(c2cc(C)nc(-c3ccncc3)n2)CC1" ? -10.9

And what about the compound "O=C(c1ccco1)N1C[C@@H]2CCN(c3cccnc3)C[C@@H]2C1" ? -11.6

And what about the compound Cc1ccc(-c2ccccc2CC2CNCCNC2=O)c(C)c1 (centres undefined) ? 31.4

And what about the compound "Cc1nnc(NC(=O)NCc2cccnc2N(C)C)s1" ? -8.59

And what about the compound "Cc1csc(CN2CC[C@H]3C[C@@H](c4nnc(C)[nH]4)O[C@@H]3C2)n1" ? 0.739

And what about the compound "O=C(O)CN1CCc2onc(C(c3ccccc3)c3ccccc3)c2C1" ? -3.48

And what about the compound O=C(Cc1cn2ccccc2n1)N1CCCC(n2ccnc2)C1 (centres undefined) ? -3.99

And what about the compound COC(=O)NCC(=O)NC1CC(C)(C)Cc2oc(C)cc21 (centres undefined) ? 1.57

And what about the compound CCC(CO)N(C/C(C)=C/c1ccco1)Cc1ccccn1 (centres undefined) ? -6

And what about the compound O=C(c1ccccc1)N1CCC2(CC1)CC(Oc1ccccc1)CO2 (centres undefined) ? -11.5

And what about the compound "COc1ncccc1C(=O)N(C)Cc1nc(-c2ccccn2)no1" ? -8.07
